Tested on: Echinochloa crus-galli (ECHCG)
Experiment: Example A post-emergence herbicidal activity, glasshouse pot test
Assay type: in vivo
Conditions: 360 h, rate 125 g/ha, evaluated 15 days after spraying, read-out: Post-emergence activity ECHCG (100=total damage to plant; 0=no damage to plant)
quantity_measured: pest or weed control at 125 g/ha (%)
Write down the numeric answer in % and omit the unit.

Problem: Request the reported pest or weed control at 125 g/ha associated with CCc1ccc(-c2ccc(Cl)c(C)c2)cc1C1=C(O)C(C)(C)OC(C)(C)C1=O
Result: 100

Problem: Same for CCc1ccc(-c2ccc(Cl)cc2)cc1C1=C(O)C(C)(C)S(=O)(=O)C(C)(C)C1=O
Result: 100

Problem: Quick one: CCc1ccc(-c2ccc(Cl)cc2)cc1C1=C(O)COCC1=O
Result: 80

Problem: Do the same for Cc1ccc(-c2ccc(Cl)c(Cl)c2)cc1C1=C(O)C(C)(C)OC(C)(C)C1=O please
Result: 40

Problem: Follow-up entry: Cc1ccc(-c2ccc(Cl)cc2)cc1C1=C(O)COC(C)(C)C1=O (single isomer, unassigned)
Result: 70

Problem: Next up: COC(=O)OC1=C(c2cc(-c3ccc(Cl)cc3)ccc2C)C(=O)C(C)(C)OC1
Result: 60

Problem: Also Cc1ccc(-c2ccc(Cl)cc2Cl)cc1C1=C(O)C(C)(C)OC(C)(C)C1=O ?
Result: 80

Problem: And the next one, CCc1ccc(-c2ccc(Cl)c(Cl)c2)cc1C1=C(O)C(C)(C)OC(C)(C)C1=O ?
Result: 100

* * *

Field: pest or weed control at 1000 g/ha. Provide a value for each of the compounds that follow.
System: Amaranthus retroflexus (AMARE)
Assay: Example B pre-emergence herbicidal activity, glasshouse pot test
Assay type: in vivo
Settings: 312 h, rate 1000 g/ha, evaluated after 13 days, read-out: Pre-emergence activity AMARE (100=total damage to plant; 0=no damage to plant)
Kindly provide the numeric value in % only, without the unit symbol.

Problem: API: value(readout= pest or weed control at 1000 g/ha, system= Amaranthus retroflexus (AMARE), query= Cc1ccc(-c2ccc(Cl)nc2C)cc1C1=C(O)C(C)(C)C(=O)C(C)(C)C1=O )
Result: 100

Problem: And Cc1ccc(-c2cccc(C(F)(F)F)c2)cc1C1=C(O)C(C)(C)OC(C)(C)C1=O ?
Result: 100

Problem: Moving on to CCc1ccc(-c2ccc(Cl)cc2)cc1C1=C(OC(=O)COC)C(C)(C)OC(C)(C)C1=O
Result: 0

Problem: // repeat for C#CCOC(=O)OC1=C(c2cc(-c3ccc(Cl)cc3)ccc2CC)C(=O)C(C)(C)OC1(C)C and report
Result: 0

Problem: And for Cc1ccc(-c2ccc(Cl)nc2)cc1C1=C(O)C(C)(C)OC(C)(C)C1=O ?
Result: 20

Problem: // same read-out, input: Cc1ccc(-c2ccc(Cl)cc2)cc1C1=C(O)C2(CCOCC2)OCC1=O (single isomer, unassigned)
Result: 0

Problem: Now the same for Cc1ccc(-c2ccc(Cl)cc2Cl)cc1C1=C(O)C(C)(C)C(=O)C(C)(C)C1=O
Result: 0

Problem: Moving on to the next compound: Cc1ccc(-c2ccc(Oc3ccccc3)cc2)cc1C1=C(O)C(C)(C)OC(C)(C)C1=O
Result: 0

Problem: Also, Cc1ccc(-c2ccc(F)cc2F)cc1C1=C(O)C(C)(C)OC(C)(C)C1=O please.
Result: 10

Problem: Let us now turn to Cc1ccc(-c2cccc(C#N)c2)cc1C1=C(O)C(C)(C)OC(C)(C)C1=O
Result: 30

Problem: Can you check CCc1ccc(-c2ccc(Cl)cc2)cc1C1=C(OC(=O)C(C)(C)OC)C(C)(C)OC(C)(C)C1=O next?
Result: 0

Problem: Cool, now Cc1ccc(-c2ccc(C#N)cc2)cc1C1=C(O)C(C)(C)OC(C)(C)C1=O
Result: 0

Problem: What about CCc1ccc(-c2ccc(Cl)cc2)cc1C1=C(OC(=O)CCOC)C(C)(C)OC(C)(C)C1=O ?
Result: 0

Problem: Repeat for the following compound: CCc1ccc(-c2ccc(Cl)cc2)cc1C1=C(OC(=O)C(C)C)C(C)(C)OC(C)(C)C1=O
Result: 0

Problem: Another: CCc1ccc(-c2ccc(Cl)c(C)c2)cc1C1=C(O)C(C)(C)C(=O)C(C)(C)C1=O
Result: 90

Problem: Note, next up: Cc1ccc(-c2ccc(Cl)cc2)cc1C1=C(O)[C@@]2(C)CC[C@H](O2)C1=O (single isomer, unassigned)
Result: 0

* * *

System: Amaranthus retroflexus (AMARE)
Test: Example B post-emergence herbicidal activity, glasshouse pot test
Type: in vivo
Settings: 312 h, rate 250 g/ha, evaluated after 13 days, read-out: Post-emergence activity AMARE (100=total damage to plant; 0=no damage to plant)
quantity_measured: pest or weed control at 250 g/ha (%)
Please state the figure in %; there is no need to write the unit.

Problem: Query: pest or weed control at 250 g/ha; subject: COc1ccc(-c2ccc(Cl)cc2)cc1C1=C(O)C(C)(C)OC(C)(C)C1=O [Compound A-90]
Result: 0

Problem: Can you check CCc1ccc(-c2ccc(Cl)c(Cl)c2F)cc1C1=C(O)C(C)(C)OC(C)(C)C1=O [Compound A-155] next?
Result: 40

Problem: Here is the next compound: CCc1ccc(-c2ccc(Cl)cc2)cc1C1=C(O)[C@@]2(C)CC[C@](C)(O2)C1=O (single isomer, unassigned) [Compound A-83]
Result: 0

Problem: And what about the compound CCc1ccc(-c2ccc(Cl)c(C(F)(F)F)c2)cc1C1=C(O)C(C)(C)C(=O)C(C)(C)C1=O [Compound B-10] ?
Result: 40

* * *

Hi there, I'd appreciate the recorded pest or weed control at 250 g/ha for every entry that follows.
Test system: Setaria faberi (SETFA)
Test: Example A pre-emergence herbicidal activity, glasshouse pot test
Assay type: in vivo
Details: 480 h, rate 250 g/ha, evaluated 20 days after spraying, read-out: Pre-emergence activity SETFA (100=total damage to plant; 0=no damage to plant)
Form field: result (number plus unit)

Problem: Entry Cc1ccc(-c2ccc(Cl)c(Cl)c2)cc1C1=C(O)C(C)(C)OC(C)(C)C1=O has what pest or weed control at 250 g/ha?
Result: 60%

Problem: Moving on to Cc1ccc(-c2ccc(Cl)c(F)c2)cc1C1=C(O)C(C)(C)OC(C)(C)C1=O
Result: 60%

Problem: Try the compound CCc1ccc(-c2ccc(Cl)cc2)cc1C1=C(O)C(C)(C)S(=O)(=O)C(C)(C)C1=O
Result: 60%

* * *

For each entry below, report its pest or weed control at 1000 g/ha value.
System: Avena fatua (AVEFA)
Test: Example B pre-emergence herbicidal activity, glasshouse pot test
Type: in vivo
Conditions: 312 h, rate 1000 g/ha, evaluated after 13 days, read-out: Pre-emergence activity AVEFA (100=total damage to plant; 0=no damage to plant)
Dear colleague, please send the value followed by its unit.

Problem: Can you look up the measured pest or weed control at 1000 g/ha of CCc1ccc(-c2ccc(Cl)cc2)cc1C1=C(OC(=O)C(C)OC)C(C)(C)OC(C)(C)C1=O [Compound D-19] for me?
Result: 20%

Problem: Queued: Cc1ccc(-c2ccc(Oc3ccccc3)cc2)cc1C1=C(O)C(C)(C)OC(C)(C)C1=O [Compound A-16]
Result: 20%

Problem: # iterate: CCc1ccc(-c2ccc(Cl)c(C)c2)cc1C1=C(O)C(C)(C)C(=O)C(C)(C)C1=O [Compound B-2]
Result: 20%

Problem: Okay, and Cc1ccc(-c2ccc(Cl)cc2Cl)cc1C1=C(O)C(C)(C)C(=O)C(C)(C)C1=O [Compound B-7] ?
Result: 0%

Problem: Next entry: CCc1ccc(-c2ccc(Cl)cc2)cc1C1=C(OC(=O)C2CC2)C(C)(C)OC(C)(C)C1=O [Compound D-10]
Result: 0%

Problem: Try Cc1ccc(-c2ccc(C#N)cc2)cc1C1=C(O)C(C)(C)OC(C)(C)C1=O [Compound A-20] next.
Result: 60%

Problem: Next: Cc1ccc(-c2ccc(Cl)nc2C)cc1C1=C(O)C(C)(C)C(=O)C(C)(C)C1=O [Compound B-6]
Result: 0%

Problem: Now try Cc1ccc(-c2ccc(Cl)nc2)cc1C1=C(O)C(C)(C)OC(C)(C)C1=O [Compound A-54] .
Result: 80%

* * *

System: Digitaria sanguinalis (DIGSA)
Test: Example A pre-emergence herbicidal activity, glasshouse pot test
Format: in vivo
Conditions: 480 h, rate 250 g/ha, evaluated 20 days after spraying, read-out: Pre-emergence activity DIGSA (100=total damage to plant; 0=no damage to plant)
Record label 1 whenever pest or weed control at 250 g/ha is at 80% or higher; record label 0 when lower.

Problem: I'd appreciate it if you could say whether Cc1ccc(-c2ccc(Cl)cc2C)cc1C1=C(O)C(C)(C)OC(C)(C)C1=O [Compound A-51] has pest or weed control at 250 g/ha at least equal to 80%.
Result: label 0

Problem: Next: CCc1ccc(-c2ccc(Cl)cc2)cc1C1=C(O)C(C)(C)S(=O)(=O)C(C)(C)C1=O [Compound C-3]
Result: label 1

Problem: Follow-up item: Cc1ccc(-c2ccc(Cl)cc2)cc1C1=C(O)[C@@]2(C)CC[C@](C)(O2)C1=O [Compound A-40]
Result: label 0

Problem: What do we get for Cc1cc(-c2ccc(C)c(C3=C(O)C(C)(C)OC(C)(C)C3=O)c2)ccc1Cl [Compound A-53] ?
Result: label 0

Problem: Same lookup for CCc1ccc(-c2ccc(F)cc2)cc1C1=C(O)[C@@]2(C)CC[C@H](O2)C1=O [Compound A-38] , please.
Result: label 0

Problem: Would you kindly repeat that for Cc1ccc(-c2ccc(C(F)(F)F)cc2)cc1C1=C(O)C(C)(C)OC(C)(C)C1=O [Compound A-10] ?
Result: label 1

Problem: What about CCc1ccc(-c2ccc(Cl)c(Cl)c2)cc1C1=C(O)C(C)(C)OC(C)(C)C1=O [Compound A-42] ?
Result: label 1

Hey, just so you know, these numbers are from patent US8680012B2.
